- TEST_METHOD_NOTES: Stability in mouse microsomes assessed as half-life
- Assay type: ADME, Microsome

{"columns": ["SMILES_DATA", "half-life"],
 "data": [
  ["O=C(Nc1cc(Cl)cc(Cl)c1)Nc1nc2ccc([N+](=O)[O-])cc2s1", "> 1 h"]
]}

----------
- TEST_METHOD_NOTES: Protein binding in human plasma
- Type: ADME, cell-free
- MEASUREMENT_PARAMETERS: read-out: PPB (converted)

{"columns": ["SMILES_DATA", "fraction unbound"],
 "data": [
  ["O=C(Nc1cc(Cl)cc(Cl)c1)Nc1nc2ccc([N+](=O)[O-])cc2s1", 0.004]
]}

----------
- Test system: CAL-27
- TEST_METHOD_NOTES: Antiproliferative activity against human CAL-27 cells incubated for 48 hrs by XTT assay
- Type: functional, cell-based
- MEASUREMENT_PARAMETERS: CAL-27, 48 h
Documented IC50 across a set of molecules

{"columns": ["SMILES_DATA", "IC50"],
 "data": [
  ["O=C(Nc1cccc(Cl)c1)Nc1nc2ccc([N+](=O)[O-])cc2o1", "> 25 µM"],
  ["O=C(Nc1cccc(Cl)c1)Nc1nc2ccc(-c3ccoc3)cc2s1", "> 10 µM"],
  ["CCOc1ccc2nc(NC(=O)Nc3cc(Cl)cc(Cl)c3)sc2c1", "> 25 µM"],
  ["Cc1ccc(-c2ccc3nc(NC(=O)Nc4cccc(Cl)c4)sc3c2)s1", "> 10 µM"],
  ["Nc1ccc2nc(NC(=O)Nc3cccc(Cl)c3)sc2c1", "> 25 µM"],
  ["O=C(Nc1cccc(Cl)c1)Nc1nc2ccc(-c3ccco3)cc2s1", "> 25 µM"]
]}

----------
- Test system: 786-0
- TEST_METHOD_NOTES: Antiproliferative activity against human 786-0 cells incubated for 48 hrs by XTT assay
- Format: functional, cell-based
- MEASUREMENT_PARAMETERS: 786-0, 48 h
pIC50: −log10 of the molar value.
Please note: Condition met applies when pIC50 is 5 or greater, and Condition not met applies otherwise.

{"columns": ["SMILES_DATA", "CLASS_NAME"],
 "data": [
  ["Cc1nn(C)cc1-c1ccc2nc(NC(=O)Nc3cccc(Cl)c3)sc2c1", "Condition met"],
  ["O=C(Nc1ccc(Cl)cc1)Nc1nc2ccc([N+](=O)[O-])cc2s1", "Condition met"],
  ["O=C(Nc1nc2ccc([N+](=O)[O-])cc2s1)Nc1ccccc1Cl", "Condition met"],
  ["CCOc1ccc2nc(NC(=O)Nc3cc(Cl)cc(Cl)c3)sc2c1", "Condition not met"],
  ["Cc1ccc(NC(=O)Nc2nc3ccc([N+](=O)[O-])cc3s2)cc1", "Condition met"],
  ["O=C(Nc1ccccc1)Nc1nc2cc([N+](=O)[O-])ccc2[nH]1", "Condition not met"],
  ["O=C(Nc1cccc(Cl)c1)Nc1nc2ccc(-c3ccccn3)cc2s1", "Condition not met"]
]}

----------
- Test system: RCC4
- TEST_METHOD_NOTES: Antiproliferative activity against human RCC4 cells incubated for 48 hrs by XTT assay
- Assay type: functional, cell-based
- MEASUREMENT_PARAMETERS: RCC4, 48 h
// assign Y if IC50 falls strictly below 20 µM, else N (ties count as N)

{"columns": ["SMILES_DATA", "CLASS_NAME"],
 "data": [
  ["O=C(Nc1ccccc1)Nc1nc2cc([N+](=O)[O-])ccc2o1", "N"],
  ["O=C(Nc1ccc(Br)cc1)Nc1nc2ccc([N+](=O)[O-])cc2s1", "Y"],
  ["O=C(Nc1cccc(Cl)c1)Nc1nc2ccc(Br)cc2s1", "N"],
  ["O=C(Nc1cccc(Cl)c1)Nc1nc2ccc(-c3ccccn3)cc2s1", "N"],
  ["O=C(Nc1nc2ccc([N+](=O)[O-])cc2s1)Nc1ccccc1Cl", "Y"],
  ["CS(=O)(=O)Nc1ccc2nc(NC(=O)Nc3cccc(Cl)c3)sc2c1", "N"],
  ["O=C(Nc1cccc(Cl)c1)Nc1nc2ccc([N+](=O)[O-])cc2o1", "N"],
  ["CC(=O)Nc1ccc2nc(NC(=O)Nc3cccc(Cl)c3)sc2c1", "N"],
  ["Cc1ccc(NC(=O)Nc2nc3ccc([N+](=O)[O-])cc3s2)cc1", "Y"],
  ["Cc1nn(C)cc1-c1ccc2nc(NC(=O)Nc3cccc(Cl)c3)sc2c1", "Y"],
  ["O=C(Nc1cccc(Cl)c1)Nc1nc2ccc(-c3ccco3)cc2s1", "N"],
  ["Cc1ccccc1NC(=O)Nc1nc2ccc([N+](=O)[O-])cc2s1", "Y"],
  ["O=C(Nc1cccc(Cl)c1)Nc1nc2cc([N+](=O)[O-])ccc2o1", "N"],
  ["Cc1ccc(NC(=O)Nc2nc3ccc([N+](=O)[O-])cc3o2)cc1", "Y"],
  ["O=C(Nc1ccccc1)Nc1nc2cc([N+](=O)[O-])ccc2[nH]1", "N"],
  ["O=C(Nc1cc(Cl)cc(Cl)c1)Nc1nc2ccc([N+](=O)[O-])cc2s1", "Y"],
  ["O=C(Nc1ccc(Cl)cc1)Nc1nc2ccc([N+](=O)[O-])cc2s1", "Y"],
  ["O=C(Nc1cccc(Cl)c1)Nc1nc2ccc([N+](=O)[O-])cc2s1", "Y"],
  ["O=C(Nc1nc2ccc([N+](=O)[O-])cc2s1)Nc1ccccc1Br", "N"],
  ["O=C(Nc1cccc(Cl)c1)Nc1nc2ccc(-c3ccsc3)cc2s1", "N"],
  ["O=C(Nc1ccccc1)Nc1nc2ccc([N+](=O)[O-])cc2s1", "Y"],
  ["CCOc1ccc2nc(NC(=O)Nc3cccc(Cl)c3)sc2c1", "N"],
  ["CCOc1ccc2nc(NC(=O)Nc3cc(Cl)cc(Cl)c3)sc2c1", "N"],
  ["O=C(Nc1cccc(Cl)c1)Nc1nc2ccc(-c3cccs3)cc2s1", "N"]
]}

----------
Documented pIC50 across a set of compounds
- Test system: 786-0
- TEST_METHOD_NOTES: Antiproliferative activity against human 786-0 cells incubated for 48 hrs by XTT assay
- Type: functional, cell-based
- MEASUREMENT_PARAMETERS: 786-0, 48 h
pIC50: −log10 of the molar value.

{"columns": ["SMILES_DATA", "pIC50"],
 "data": [
  ["CS(=O)(=O)Nc1ccc2nc(NC(=O)Nc3cccc(Cl)c3)sc2c1", "< 4.60"],
  ["COc1ccc(NC(=O)Nc2nc3ccc([N+](=O)[O-])cc3s2)cc1", 4.60],
  ["Cn1cc(-c2ccc3nc(NC(=O)Nc4cccc(Cl)c4)sc3c2)cn1", "< 5.00"],
  ["Cc1ccc(-c2ccc3nc(NC(=O)Nc4cccc(Cl)c4)sc3c2)s1", "< 5.00"],
  ["O=C(Nc1ccccc1)Nc1nc2cc([N+](=O)[O-])ccc2o1", "< 4.60"],
  ["Cc1ccccc1NC(=O)Nc1nc2ccc([N+](=O)[O-])cc2s1", 5.10],
  ["CC(=O)Nc1ccc2nc(NC(=O)Nc3cccc(Cl)c3)sc2c1", "< 4.60"],
  ["O=C(Nc1ccc(Br)cc1)Nc1nc2ccc([N+](=O)[O-])cc2s1", 5.30]
]}

----------
Documented IC50 across a set of compounds
- System: 786-0
- TEST_METHOD_NOTES: Antiproliferative activity against human 786-0 cells incubated for 48 hrs by XTT assay
- Assay type: functional, cell-based
- MEASUREMENT_PARAMETERS: 786-0, 48 h
EXPERIMENTAL_ENDPOINT: IC50

{"columns": ["SMILES_DATA", "TARGET", "EXPERIMENTAL_RESULT"],
 "data": [
  ["O=C(Nc1cccc(Cl)c1)Nc1nc2ccc(-c3ccoc3)cc2s1", "786-0", "> 10 µM"],
  ["O=C(Nc1cccc(Cl)c1)Nc1nc2ccc(-c3ccco3)cc2s1", "786-0", "> 25 µM"],
  ["CCOc1ccc2nc(NC(=O)Nc3cccc(Cl)c3)sc2c1", "786-0", "> 25 µM"],
  ["O=C(Nc1cccc(Cl)c1)Nc1nc2ccc(-c3ccsc3)cc2s1", "786-0", "> 25 µM"],
  ["O=C(Nc1cccc(Cl)c1)Nc1nc2ccc(Br)cc2s1", "786-0", "> 25 µM"]
]}

----------
- TEST_METHOD_NOTES: Antiproliferative activity against human Sunitinib-resistant 786-R cells incubated for 48 hrs by XTT assay
- Format: functional, cell-based

{"columns": ["SMILES_DATA", "IC50"],
 "data": [
  ["Nc1ccc2nc(NC(=O)Nc3cccc(Cl)c3)sc2c1", "> 25 µM"],
  ["Cn1cc(-c2ccc3nc(NC(=O)Nc4cccc(Cl)c4)sc3c2)cn1", "> 10 µM"],
  ["CS(=O)(=O)Nc1ccc2nc(NC(=O)Nc3cccc(Cl)c3)sc2c1", "> 25 µM"],
  ["O=C(Nc1ccccc1)Nc1nc2cc([N+](=O)[O-])ccc2[nH]1", "> 25 µM"],
  ["CCOc1ccc2nc(NC(=O)Nc3cccc(Cl)c3)sc2c1", "> 25 µM"],
  ["O=C(Nc1cccc(Cl)c1)Nc1nc2ccc(-c3ccco3)cc2s1", "> 25 µM"],
  ["O=C(Nc1ccccc1)Nc1nc2cc([N+](=O)[O-])ccc2o1", "> 25 µM"],
  ["Cc1noc(C)c1-c1ccc2nc(NC(=O)Nc3cccc(Cl)c3)sc2c1", "4 µM"],
  ["O=C(Nc1cccc(Cl)c1)Nc1nc2ccc([N+](=O)[O-])cc2o1", "> 25 µM"],
  ["CCOc1ccc2nc(NC(=O)Nc3cc(Cl)cc(Cl)c3)sc2c1", "> 25 µM"],
  ["COc1ccc(NC(=O)Nc2nc3ccc([N+](=O)[O-])cc3s2)cc1", "25 µM"],
  ["O=C(Nc1cccc(Cl)c1)Nc1nc2ccc(Br)cc2s1", "> 25 µM"],
  ["CC(=O)Nc1ccc2nc(NC(=O)Nc3cccc(Cl)c3)sc2c1", "25 µM"],
  ["O=C(Nc1nc2ccc([N+](=O)[O-])cc2s1)Nc1ccccc1Br", "14 µM"],
  ["O=C(Nc1ccc(Cl)cc1)Nc1nc2ccc([N+](=O)[O-])cc2s1", "5 µM"],
  ["O=C(Nc1nc2ccc([N+](=O)[O-])cc2s1)Nc1ccccc1Cl", "10 µM"]
]}
